Assay: Pharmacokinetics in tumor-bearing KPC mice after 25 mg/kg single or multiple dose oral gavage
Assay type: in vivo
Conditions: KPC, mouse; spleen; single PO dose 25 mg/kg
Quantity: Tmax (h)
One number for each entry, in h.

Note to self: Tmax recorded for N=c1c2c(-c3ccccc3)c(-c3ccccc3)n(Cc3ccccc3)c2ncn1[C@H]1CC[C@H](O)CC1 was 6

---

Assay: Steady-state PK in KPC mice fed metarrestin-infused chow
Type: in vivo
Conditions: KPC, mouse, plasma, oral; 3 hr; day 10, 10 mg/kg/day (70 ppm) chow; read-out: Plasma concentration
Quantity: concentration at 3 h (nM)
Answers are plain numbers, in nM.

Measured concentration at 3 h, N=c1c2c(-c3ccccc3)c(-c3ccccc3)n(Cc3ccccc3)c2ncn1[C@H]1CC[C@H](O)CC1 : 330

---

Experiment: Pharmacokinetics in tumor-bearing KPC mice after 25 mg/kg single or multiple dose oral gavage
Assay type: in vivo
Conditions: KPC, mouse; liver/plasma; single PO dose 25 mg/kg; read-out: AUC0–24h ratio (tissue/plasma)
Quantity: Kp
One number for each entry.

Record N=c1c2c(-c3ccccc3)c(-c3ccccc3)n(Cc3ccccc3)c2ncn1[C@H]1CC[C@H](O)CC1 , field Kp: 44

---

Test: Pharmacokinetics in C57BL/6 mice after single IV and PO administration
Format: in vivo
Conditions: C57BL/6, mouse; liver; 3 mg/kg PO single dose
Quantity: Cmax

Note to self: Cmax recorded for N=c1c2c(-c3ccccc3)c(-c3ccccc3)n(Cc3ccccc3)c2ncn1[C@H]1CC[C@H](O)CC1 [metarrestin] was 5420 ng/mL

---

Assay: Pharmacokinetics in tumor-bearing KPC mice after 25 mg/kg single or multiple dose oral gavage
Format: in vivo
Details: KPC, mouse, spleen, po, 25 mg/kg/day, spleen; day 14, multiple PO doses 25 mg/kg/day; read-out: AUC0–48h
Quantity: AUC(0-t) (µg·h/mL)
Numbers only, in µg·h/mL.

The molecule N=c1c2c(-c3ccccc3)c(-c3ccccc3)n(Cc3ccccc3)c2ncn1[C@H]1CC[C@H](O)CC1 showed AUC(0-t) equal to 1220

---

Assay: Pharmacokinetics in C57BL/6 mice after single IV and PO administration
Assay type: in vivo
Settings: C57BL/6, mouse, plasma, iv, 3 mg/kg; 3 mg/kg IV single dose
Quantity: half-life

Entry N=c1c2c(-c3ccccc3)c(-c3ccccc3)n(Cc3ccccc3)c2ncn1[C@H]1CC[C@H](O)CC1 — recorded half-life = ~5 h

---

Test: Pharmacokinetics in tumor-bearing KPC mice after 25 mg/kg single or multiple dose oral gavage
Format: in vivo
Details: KPC, mouse; liver/plasma; day 14, multiple PO doses 25 mg/kg/day; read-out: AUC0–24h ratio (tissue/plasma)
Quantity: Kp
Give bare numbers.

Measured Kp, N=c1c2c(-c3ccccc3)c(-c3ccccc3)n(Cc3ccccc3)c2ncn1[C@H]1CC[C@H](O)CC1 : 31

---

Assay: Pharmacokinetics in tumor-bearing KPC mice after 25 mg/kg single or multiple dose oral gavage
Assay type: in vivo
Conditions: KPC, mouse; plasma; single PO dose 25 mg/kg
Quantity: half-life (h)
Numbers only, in h.

Given item N=c1c2c(-c3ccccc3)c(-c3ccccc3)n(Cc3ccccc3)c2ncn1[C@H]1CC[C@H](O)CC1 , the value recorded as its half-life is 8.5

---

Assay: Pharmacokinetics in C57BL/6 mice after single IV and PO administration
Type: in vivo
Details: C57BL/6, mouse; plasma; 3 mg/kg PO single dose
Quantity: AUC(0-inf) (ng·h/mL)
Give bare numbers, in ng·h/mL.

Given item N=c1c2c(-c3ccccc3)c(-c3ccccc3)n(Cc3ccccc3)c2ncn1[C@H]1CC[C@H](O)CC1 , the value recorded as its AUC(0-inf) is 871

Data origin, for the record: paper PMC6267684
